Recorded values, source paper PMC12635197.

Target: TRF1TRFH:TIN2-FAM interaction (Homo sapiens, UniProt P54274)
Construct: encoding residues 47–268, UniProt identifier P54274-1; His6-MBP (TEV-cleavable) (N, cleaved yes); probe peptide from Pepceuticals
Assay: Fluorescence polarisation (FP) competition assay, TIN2-FAM displacement
Settings: 0.6 µM TRF1TRFH, 25 nM TIN2-FAM; mean of three independent experiments, 95% CI in parentheses
Reported IC50 is given for each of the following molecules.

molecule	endpointUnit	IC50
O=S(=O)([O-])c1ccc(OCc2cccc(Cl)c2)c2ccccc12.[Na+] [Compound 43]	µM	180
O=S(=O)([O-])c1ccc(OCc2cccc(Br)c2)c2ccccc12.[Na+] [Compound 44]	µM	110
CCCOc1cccc(COc2ccc(S(=O)(=O)[O-])c3ccccc23)c1.[Na+] [Compound 41]	µM	23
O=S(=O)(O)c1ccc(OCc2ccccc2)c2ccccc12 [Compound 32]	µM	150
COc1cc(COc2ccc(S(=O)(=O)[O-])c3ccccc23)cc(OC)c1.[Na+] [Compound 40]	µM	67
COc1ccccc1COc1ccc(S(=O)(=O)[O-])c2ccccc12.[Na+] [Compound 39]	µM	170
COc1cccc(COc2ccc(S(=O)(=O)[O-])c3ccccc23)c1.[Na+] [Compound 38]	µM	150
Cc1cccc(COc2ccc(S(=O)(=O)[O-])c3ccccc23)c1.[Na+] [Compound 37]	µM	200
O=S(=O)([O-])c1ccc(OCc2cccc(OC(F)(F)F)c2)c2ccccc12.[Na+] [Compound 42]	µM	80

###

Reported CPMG recovery is given for each of the following compounds.
Target: TRF1TRFH (Homo sapiens)
Construct: encoding residues 47–268, UniProt identifier P54274-1; His6-MBP (TEV-cleavable) (N, cleaved yes); made in house; host or cells: E. coli BL21-CodonPlus(DE3)-RIL
Sequence (P54274 47-268): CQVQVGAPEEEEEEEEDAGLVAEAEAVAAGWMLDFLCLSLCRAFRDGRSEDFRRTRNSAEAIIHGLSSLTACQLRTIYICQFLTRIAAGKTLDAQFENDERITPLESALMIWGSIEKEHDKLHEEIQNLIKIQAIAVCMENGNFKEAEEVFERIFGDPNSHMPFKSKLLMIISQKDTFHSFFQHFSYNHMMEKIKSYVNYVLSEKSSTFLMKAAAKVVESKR
Test: LO-NMR CPMG assay (relaxation-edited), singletons
Type: binding
Conditions: net recovery of peak intensity on addition of TIN2TBM peptide (40 µM) to compound plus protein; single experiment

smi	testTarget	CPMG recovery / %
CCOc1ccc(S(=O)(=O)O)c2ccccc12	TRF1TRFH (Homo sapiens)	49
COc1ccc2sc(C)nc2c1	TRF1TRFH (Homo sapiens)	9
COc1ccc(S(=O)(=O)O)c2ccccc12	TRF1TRFH (Homo sapiens)	22
O=S(=O)(O)c1ccc(OCc2ccccc2)c2ccccc12	TRF1TRFH (Homo sapiens)	29
COc1ccc2sc(N)nc2c1	TRF1TRFH (Homo sapiens)	0

###

Reported CPMG reduction is given for each of the following compounds.
Molecular target: TRF1TRFH (Homo sapiens)
Construct: encoding residues 47–268, UniProt identifier P54274-1; His6-MBP (TEV-cleavable) (N, cleaved yes); made in house; host or cells: E. coli BL21-CodonPlus(DE3)-RIL
Experiment: LO-NMR CPMG assay (relaxation-edited), singletons
Assay type: binding
Details: average peak intensity reduction on addition of TRF1TRFH; 250 µM ligand, 20 µM protein; single experiment

smi	CPMG reduction (%)
COc1ccc2sc(N)nc2c1	25
COc1ccc(S(=O)(=O)O)c2ccccc12	87
O=S(=O)(O)c1ccc(OCc2ccccc2)c2ccccc12	100
COc1cc2nc(N)sc2cc1OC	14
CC(C)Oc1ccc(S(=O)(=O)[O-])c2ccccc12.[Na+]	83
CN(C)C(=O)COc1cccc(F)c1	12
CCOc1ccc(C(=O)O)c2ccccc12	28
COc1ccc2sc(C)nc2c1	18
O=C(NC1CC1)c1cnn2cccnc12	13
NS(=O)(=O)c1ccccc1OC(F)F	0
